Assignment: determine reported growth inhibition for the given molecules.
Test: NCI Yeast Anticancer Drug Screen. Data for the mlh1 rad18 strain (AID 175)
Settings: S. cerevisiae mlh1 rad18 strain growth inhibition; at 5.0 µM (retest, dose inferred, filed as 0.5); hits give high values
About 79,000 compounds went through this panel and 15% of them were active in at least one assay; those are over-represented in the sample as a whole.
Numbers only, in %.

Completed entries (count: 5):
COc1ccccc1/C=C1\C=Cc2ccccc21; -3
C/C(=N\NC(=S)NNC(=S)N1CCCc2ccccc21)c1ccccn1; 5
C(=N\N=C\c1ccc2c(c1)OCO2)/c1ccc2c(c1)OCO2; 10
CCCCN(CCCC)CC(O)c1cc(-c2ccc(Cl)cc2)nc2c(-c3ccccc3)cccc12 (configuration not stated); 0
C\C=C/C=C/C=C/C(=O)O; 1

Give growth inhibition for each listed item.
1. CCCCCCCCCCCCCC/[N+]([O-])=C/c1ccc([N+](=O)[O-])o1
2. N#CSc1ccc(O)c2ccccc12
3. CC1CCN(c2cc(-c3cc4ccccc4o3)oc(=O)c2C#N)CC1
4. Fc1ccc(NC(=S)SCc2ccccc2)cc1
5. C=CC(=C)OC

OUTPUT:
1. 8
2. 29
3. -5
4. 0
5. 2

Give growth inhibition for each listed item.
1. CC(C)c1cc(=O)c2cc3[nH]c4ccccc4c3cc2[nH]1
2. Cc1[nH]c2ccccc2c1C1=CC2(C)Nc3ccccc3C2C(C)(C)C1 (configuration not stated)
3. CCCCCCCCCCCC(C)N (configuration not stated)

OUTPUT:
-9
-1
2

Give growth inhibition for each listed item.
1. S=C(NC/C(Br)=C/Br)Nc1cccc2ccccc12
2. CCN(CC)CCCCCCNc1cc(C)cc2ccc(C)nc12
3. O=c1[nH]cnc2c1ncn2CCc1ccccc1
4. O=C(Nc1ccccc1C(=O)NC(=O)c1ccccc1NC(=O)c1ccccc1)c1ccccc1
5. C/C(=N\NC(=S)N1CCC(C)CC1)c1ncccn1
6. CC/S(=N\S(=O)(=O)c1ccc(C)cc1)c1cccc[n+]1[O-] (configuration not stated)
7. O=Cc1ccc(O)cc1O
8. CC(C)OC(=O)c1ccc(CCC2=CC(=O)C=CC2=O)cc1

OUTPUT:
[-13, 21, 4, 5, -4, 87, 1, 66]

INPUT: # input molecule: O=C(/C=C/c1cccnc1)c1cc(Cl)ccc1O ; wanted: its growth inhibition
OUTPUT: 5

Source listed as PubChem BioAssay (NCI).
